Where these numbers come from: patent US20220402995A1

# Residual activity [%] values compiled below
Target: T1, VLP2 (virus-like particles of AAV2) (AAV2, UniProt P03135 1-735; P03135 1-598; P03135 1-533)
T1 construct: Empty AAV2 capsid; background says about 60 protein molecules, VP1:VP2:VP3 = 1:1:10; Immobilised on the ELISA plate
T1 sequence (P03135 whole entry, chain 1 of 3): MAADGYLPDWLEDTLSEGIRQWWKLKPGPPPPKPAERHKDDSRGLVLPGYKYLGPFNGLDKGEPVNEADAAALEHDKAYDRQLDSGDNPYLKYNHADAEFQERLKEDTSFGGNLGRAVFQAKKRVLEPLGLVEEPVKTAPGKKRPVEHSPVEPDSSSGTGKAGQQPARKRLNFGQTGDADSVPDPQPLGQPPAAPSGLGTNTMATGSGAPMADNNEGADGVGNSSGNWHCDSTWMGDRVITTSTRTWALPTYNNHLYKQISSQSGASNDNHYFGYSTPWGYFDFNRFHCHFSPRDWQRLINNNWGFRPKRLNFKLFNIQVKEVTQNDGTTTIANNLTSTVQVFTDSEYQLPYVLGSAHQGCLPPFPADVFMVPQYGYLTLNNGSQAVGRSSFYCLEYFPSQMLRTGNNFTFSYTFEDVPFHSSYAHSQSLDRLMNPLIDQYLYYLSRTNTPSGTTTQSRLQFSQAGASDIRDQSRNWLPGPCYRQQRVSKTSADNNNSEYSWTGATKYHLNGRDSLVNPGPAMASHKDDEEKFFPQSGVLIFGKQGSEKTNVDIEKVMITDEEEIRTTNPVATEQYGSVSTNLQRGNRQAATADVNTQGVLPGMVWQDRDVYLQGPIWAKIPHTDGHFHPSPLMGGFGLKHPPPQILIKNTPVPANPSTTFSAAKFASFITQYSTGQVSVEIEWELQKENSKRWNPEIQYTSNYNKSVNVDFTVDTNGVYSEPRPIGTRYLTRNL
T1 sequence (P03135 139-735, tags left off, chain 2 of 3): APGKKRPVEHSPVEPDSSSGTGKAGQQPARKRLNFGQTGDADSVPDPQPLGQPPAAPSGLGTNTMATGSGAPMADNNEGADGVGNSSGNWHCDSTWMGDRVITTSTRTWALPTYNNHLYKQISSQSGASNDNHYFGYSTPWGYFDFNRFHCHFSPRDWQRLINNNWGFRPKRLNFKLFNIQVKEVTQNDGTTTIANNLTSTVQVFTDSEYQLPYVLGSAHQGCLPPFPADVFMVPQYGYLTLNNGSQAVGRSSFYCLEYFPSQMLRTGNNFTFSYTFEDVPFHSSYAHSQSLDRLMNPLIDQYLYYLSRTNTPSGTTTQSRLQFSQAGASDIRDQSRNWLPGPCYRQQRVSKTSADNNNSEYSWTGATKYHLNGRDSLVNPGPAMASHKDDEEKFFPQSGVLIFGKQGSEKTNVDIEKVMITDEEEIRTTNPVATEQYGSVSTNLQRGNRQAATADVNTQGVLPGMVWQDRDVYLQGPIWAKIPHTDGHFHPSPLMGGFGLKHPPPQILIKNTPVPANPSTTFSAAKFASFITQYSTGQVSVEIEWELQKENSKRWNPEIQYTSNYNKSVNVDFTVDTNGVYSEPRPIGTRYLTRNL
T1 sequence (P03135 203-735, chain 3 of 3): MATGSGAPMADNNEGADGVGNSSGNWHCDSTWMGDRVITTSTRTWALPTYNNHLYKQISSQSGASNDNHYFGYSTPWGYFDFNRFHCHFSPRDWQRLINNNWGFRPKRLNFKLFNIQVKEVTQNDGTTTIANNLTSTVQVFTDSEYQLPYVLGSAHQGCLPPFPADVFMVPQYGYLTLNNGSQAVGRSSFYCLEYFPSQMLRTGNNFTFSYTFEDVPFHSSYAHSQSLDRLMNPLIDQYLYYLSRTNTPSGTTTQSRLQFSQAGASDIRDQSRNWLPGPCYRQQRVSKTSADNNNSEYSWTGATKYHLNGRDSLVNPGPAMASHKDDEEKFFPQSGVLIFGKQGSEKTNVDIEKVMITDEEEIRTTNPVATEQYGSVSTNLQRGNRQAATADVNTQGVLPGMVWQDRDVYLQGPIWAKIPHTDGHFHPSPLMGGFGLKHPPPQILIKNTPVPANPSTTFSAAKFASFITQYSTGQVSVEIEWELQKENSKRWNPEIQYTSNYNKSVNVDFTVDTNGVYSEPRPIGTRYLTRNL
Test: ELISA on VLP2; binding after pH 10.0 41.2°C 15 min / untreated
Entry rule: numbers only, all in %.

Binder: AAV-binding protein No. 130 (AVR8g + Lys323Arg, Glu384Val) (receptor) MGSAGESDQITLPRNEVQLNAYVLQEPPKGETCTYDWQLITHPRDYSGEMEGEHSQILKLSNLTPGLYEFKVIVVGQNAHSEGYVNVTVEPEPRKNRPPIAIVSPQFQEISLPTTSTVIDGSQSTDDDKIVQYHWEELKGPLREEKISEDTAILKLSKLVPGNYTFRLTVVDSDGATDSTTANLTVNKAVDHHHHHH
Residual activity [%] / %: 63.1
//
Binder: AVR8g (Val317Asp, Tyr342Cys, Lys362Glu, Lys371Asn, Gly390Ser, Lys399Glu, Ser476Arg, Asn487Asp) (receptor) MGSAGESDQITLPKNEVQLNAYVLQEPPKGETCTYDWQLITHPRDYSGEMEGEHSQILKLSNLTPGLYEFKVIVEGQNAHSEGYVNVTVEPEPRKNRPPIAIVSPQFQEISLPTTSTVIDGSQSTDDDKIVQYHWEELKGPLREEKISEDTAILKLSKLVPGNYTFRLTVVDSDGATDSTTANLTVNKAVDHHHHHH
Residual activity [%] / %: 23.1

The record that follows has no Residual activity [%] shown yet.
I have this binder here, AAV-binding protein No. 135 (AVR8g + Glu335Gly, Gln386Arg) (receptor) MGSAGESDQITLPKNEVQLNAYVLQGPPKGETCTYDWQLITHPRDYSGEMEGEHSQILKLSNLTPGLYEFKVIVEGRNAHSEGYVNVTVEPEPRKNRPPIAIVSPQFQEISLPTTSTVIDGSQSTDDDKIVQYHWEELKGPLREEKISEDTAILKLSKLVPGNYTFRLTVVDSDGATDSTTANLTVNKAVDHHHHHH , and I need its recorded Residual activity [%]. 36.3
